Data origin, for the record: patent US10457710B2

# Test system: clinical strains of Acinetobacter baumannii
# assay text: MIC, microdilution, clinical strains
# Format: cell-based
# Design: unit: μg/ml
# recorded conditions: Acinetobacter baumannii strain 5, Muller Hinton broth-cation adjusted, 0.02% BSA, 0.2% acetic acid
Where a SMILES comes first, the peptide text is derived from it. [ ]: non-standard residue; d: D form.
observed property: Minimum inhibitory concentration
Answer with a bare number; do not write a unit.

Take a look at these entries with their results.
Entry CC(C)C[C@@H](NC(=O)[C@H](N)CCCNC(=N)N)C(=O)N[C@H](CCCCN)C(=O)N[C@H](CCCNC(=N)N)C(=O)N[C@H](Cc1c[nH]c2ccccc12)C(=O)N[C@H](CCCNC(=N)N)C(=O)N[C@H](CC(C)C)C(=O)N[C@H](Cc1ccccc1)C(=O)N[C@H](CCCNC(=N)N)C(=O)N[C@H](CCCCN)C(=O)N[C@H](CCCNC(=N)N)C(=O)O [Chain306D] (H-[dR][dL][dK][dR][dW][dR][dL][dF][dR][dK][dR]-OH) , system clinical strains of Acinetobacter baumannii: what Minimum inhibitory concentration was measured?
8

And the next one, CC(C)C[C@@H](NC(=O)[C@H](N)CCCNC(=N)N)C(=O)N[C@H](CCCCN)C(=O)N[C@H](Cc1c[nH]c2ccccc12)C(=O)N[C@H](Cc1ccccc1)C(=O)N[C@H](CC(C)C)C(=O)N[C@H](CC(C)C)C(=O)N[C@H](Cc1ccccc1)C(=O)N[C@H](CCCNC(=N)N)C(=O)N[C@H](CCCCN)C(=O)N[C@H](CCCNC(=N)N)C(=O)O [Chain308D] (H-[dR][dL][dK][dW][dF][dL][dL][dF][dR][dK][dR]-OH) ?
2

---
Item: CC[C@@H](C)[C@@H](NC(=O)[C@@H](Cc1c[nH]c2ccccc12)NC(=O)[C@H](N)CCCCN)C(=O)N[C@@H](C(=O)N[C@H](Cc1c[nH]c2ccccc12)C(=O)N[C@H](CCCNC(=N)N)C(=O)N[C@H](Cc1c[nH]c2ccccc12)C(=O)N[C@H](CCCNC(=N)N)C(=O)N[C@H](Cc1ccccc1)C(=O)N[C@H](CCCCN)C(=O)N[C@H](CCCNC(=N)N)C(=O)O)C(C)C [Chain201D] (H-[dK][dW][dI][dV][dW][dR][dW][dR][dF][dK][dR]-OH) Test system: clinical strains of Acinetobacter baumannii Read-out: Minimum inhibitory concentration Value: ?
4

How about this molecule: CC[C@@H](C)[C@@H](NC(=O)[C@@H](CC(C)C)NC(=O)[C@@H](CCCNC(=N)N)NC(=O)[C@H](N)CCCNC(=N)N)C(=O)N[C@H](Cc1c[nH]c2ccccc12)C(=O)N[C@H](CCCNC(=N)N)C(=O)N[C@H](CCCNC(=N)N)C(=O)N[C@H](Cc1ccccc1)C(=O)N[C@H](CCCCN)C(=O)N[C@H](Cc1c[nH]c2ccccc12)C(=O)N[C@H](CC(C)C)C(=O)N[C@H](CCCNC(=N)N)C(=O)O [Chain204D] (H-[dR][dR][dL][dI][dW][dR][dR][dF][dK][dW][dL][dR]-OH)
4

* * *

Quick list: Minimum inhibitory concentration per entry.
# System: Candida albicans
# assay text: MIC, clinical yeast strains
# Assay type: cell-based
# recorded conditions: Candida albicans clinical yeast strain 4
Where a SMILES comes first, the peptide text is derived from it. [ ]: non-standard residue; d: D form.
Give the value as a plain number.

Please give the measured Minimum inhibitory concentration for this molecule: CC(C)C[C@@H](NC(=O)[C@H](N)CCCNC(=N)N)C(=O)N[C@H](CCCCN)C(=O)N[C@H](CCCNC(=N)N)C(=O)N[C@H](Cc1c[nH]c2ccccc12)C(=O)N[C@H](CCCNC(=N)N)C(=O)N[C@H](CC(C)C)C(=O)N[C@H](Cc1ccccc1)C(=O)N[C@H](CCCNC(=N)N)C(=O)N[C@H](CCCCN)C(=O)N[C@H](CCCNC(=N)N)C(=O)O [Chain306D] (H-[dR][dL][dK][dR][dW][dR][dL][dF][dR][dK][dR]-OH)
16

And then CC(C)C[C@@H](NC(=O)[C@@H](CCCCN)NC(=O)[C@@H](CCCCN)NC(=O)[C@@H](Cc1ccccc1)NC(=O)[C@@H](CC(C)C)NC(=O)[C@@H](Cc1c[nH]c2ccccc12)NC(=O)[C@@H](CCCNC(=N)N)NC(=O)[C@@H](Cc1c[nH]c2ccccc12)NC(=O)[C@@H](CCCCN)NC(=O)[C@@H](CCCNC(=N)N)NC(=O)[C@H](N)CCCCN)C(=O)O [Chain310D] (H-[dK][dR][dK][dW][dR][dW][dL][dF][dK][dK][dL]-OH) , what is it?
16

// switching to the query molecule
Given the molecule CC[C@@H](C)[C@@H](N)C(=O)N[C@H](Cc1c[nH]c2ccccc12)C(=O)N[C@H](CCCCN)C(=O)N[C@H](CCCNC(=N)N)C(=O)N[C@H](Cc1ccccc1)C(=O)N[C@H](CCCNC(=N)N)C(=O)N[C@H](CC(C)C)C(=O)N[C@H](Cc1ccccc1)C(=O)N[C@H](CCCCN)C(=O)N[C@H](CCCCN)C(=O)N[C@H](Cc1c[nH]c2ccccc12)C(=O)O [Chain304D] (H-[dI][dW][dK][dR][dF][dR][dL][dF][dK][dK][dW]-OH) , what is its reported Minimum inhibitory concentration?
16

* * *

# Tested on: clinical strains of Serratia marcescens
# assay text: MIC, microdilution, clinical strains
# Assay type: cell-based
# recorded conditions: Serratia marcescens strain 4, Muller Hinton broth-cation adjusted, 0.02% BSA, 0.2% acetic acid
# Experimental: Minimum inhibition concetrations (MICs) were determined against Escherichia coli (ATCC 25922), Staphylococcus aureus (ATCC 25923), Klebsiella pneumoniae (ATCC 10031) and Pseudomonas aeruginosa (ATCC 27853). […] The susceptibility of these microorganisms to Chain peptides were determined using micro broth dilution assay. […] Concentrations of Chain peptides and reference antibiotics ranged from 0.125 to 128 μg/ml and the MICs were recorded as the lowest concentration with no visual growth of bacteria. […]
Where a SMILES comes first, the peptide text is derived from it. [ ]: non-standard residue; d: D form.
observed property: Minimum inhibitory concentration

For the molecule CC[C@@H](C)[C@@H](NC(=O)[C@@H](Cc1c[nH]c2ccccc12)NC(=O)[C@H](N)CCCCN)C(=O)N[C@@H](C(=O)N[C@H](Cc1c[nH]c2ccccc12)C(=O)N[C@H](CCCNC(=N)N)C(=O)N[C@H](Cc1c[nH]c2ccccc12)C(=O)N[C@H](CCCNC(=N)N)C(=O)N[C@H](Cc1ccccc1)C(=O)N[C@H](CCCCN)C(=O)N[C@H](CCCNC(=N)N)C(=O)O)C(C)C [Chain201D] (H-[dK][dW][dI][dV][dW][dR][dW][dR][dF][dK][dR]-OH) , what Minimum inhibitory concentration is on record?
64

Now consider CC[C@@H](C)[C@@H](N)C(=O)N[C@H](Cc1c[nH]c2ccccc12)C(=O)N[C@H](CCCCN)C(=O)N[C@H](CCCNC(=N)N)C(=O)N[C@H](Cc1ccccc1)C(=O)N[C@H](CCCNC(=N)N)C(=O)N[C@H](CC(C)C)C(=O)N[C@H](Cc1ccccc1)C(=O)N[C@H](CCCCN)C(=O)N[C@H](CCCCN)C(=O)N[C@H](Cc1c[nH]c2ccccc12)C(=O)O [Chain304D] (H-[dI][dW][dK][dR][dF][dR][dL][dF][dK][dK][dW]-OH) .
>128

Then what about the molecule CC(C)C[C@@H](NC(=O)[C@H](N)CCCCN)C(=O)N[C@H](CCCCN)C(=O)N[C@H](Cc1c[nH]c2ccccc12)C(=O)N[C@H](Cc1ccccc1)C(=O)N[C@H](Cc1c[nH]c2ccccc12)C(=O)N[C@H](CC(C)C)C(=O)N[C@H](Cc1ccccc1)C(=O)N[C@H](CCCCN)C(=O)N[C@H](CCCCN)C(=O)N[C@H](CCCNC(=N)N)C(=O)O [Chain311D] (H-[dK][dL][dK][dW][dF][dW][dL][dF][dK][dK][dR]-OH) ?
>128

Repeat with CC(C)C[C@@H](NC(=O)[C@@H](CCCCN)NC(=O)[C@@H](Cc1c[nH]c2ccccc12)NC(=O)[C@@H](CCCCN)NC(=O)[C@@H](C)NC(=O)[C@@H](Cc1c[nH]cn1)NC(=O)[C@@H](CC(C)C)NC(=O)[C@@H](CCCNC(=N)N)NC(=O)[C@@H](Cc1c[nH]c2ccccc12)NC(=O)[C@H](N)Cc1c[nH]c2ccccc12)C(=O)N[C@H](Cc1c[nH]c2ccccc12)C(=O)O [Chain109D] (H-[dW][dW][dR][dL][dH][dA][dK][dW][dK][dL][dW]-OH)
>128

Likewise for CC(C)C[C@@H](NC(=O)[C@H](N)CCCNC(=N)N)C(=O)N[C@H](CCCCN)C(=O)N[C@H](Cc1c[nH]c2ccccc12)C(=O)N[C@H](Cc1ccccc1)C(=O)N[C@H](Cc1c[nH]c2ccccc12)C(=O)N[C@H](CC(C)C)C(=O)N[C@H](Cc1ccccc1)C(=O)N[C@H](CCCNC(=N)N)C(=O)N[C@H](CCCCN)C(=O)N[C@H](CCCNC(=N)N)C(=O)O [Chain307D] (H-[dR][dL][dK][dW][dF][dW][dL][dF][dR][dK][dR]-OH) ?
>128

More entries:
Which Minimum inhibitory concentration value belongs to CC(C)C[C@@H](NC(=O)[C@@H](Cc1c[nH]c2ccccc12)NC(=O)[C@@H](Cc1ccccc1)NC(=O)[C@@H](Cc1c[nH]c2ccccc12)NC(=O)[C@@H](CCCCN)NC(=O)[C@@H](CCCNC(=N)N)NC(=O)[C@H](N)Cc1c[nH]c2ccccc12)C(=O)N[C@H](Cc1ccccc1)C(=O)N[C@H](CCCCN)C(=O)N[C@H](CCCCN)C(=O)N[C@H](CCCNC(=N)N)C(=O)O [Chain309D] (H-[dW][dR][dK][dW][dF][dW][dL][dF][dK][dK][dR]-OH) ?
>128
